Biological target: CDK2/Cyclin A complex (Homo sapiens)
Assay: CDK2/Cyclin A assay ([32P]ATP incorporation into Rb fragment)
Type: biochemical
Conditions: Table 1; read-out: CDK2 * (Ki, cell in µM)
VALUE_TYPE: Ki

[[record]]
compound = "C(=C\\c1n[nH]c2cc(Sc3ccccc3)ccc12)/c1ccccc1"
assay_system = "CDK2/Cyclin A complex (Homo sapiens)"
meas_value = "> 100 µM"

[[record]]
compound = "C(=C\\c1n[nH]c2cc(Oc3ccccc3)ccc12)/c1ccccc1 [8(a), 3-(E-styryl)-6-phenoxy-1H-indazole]"
assay_system = "CDK2/Cyclin A complex (Homo sapiens)"
meas_value = "> 100 µM"


====

Biological target: LCK tyrosine kinase (Homo sapiens, UniProt P06239, C224D/P223M)
Sequence (P06239 223-509 P223M/C224D): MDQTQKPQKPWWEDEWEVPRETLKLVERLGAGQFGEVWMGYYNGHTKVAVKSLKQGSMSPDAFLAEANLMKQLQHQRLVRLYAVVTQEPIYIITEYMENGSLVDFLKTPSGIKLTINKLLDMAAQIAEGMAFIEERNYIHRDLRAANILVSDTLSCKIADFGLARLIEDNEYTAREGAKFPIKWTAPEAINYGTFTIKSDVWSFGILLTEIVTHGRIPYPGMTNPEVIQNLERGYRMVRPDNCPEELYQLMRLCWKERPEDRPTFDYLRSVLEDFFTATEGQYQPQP
Test: LCK spectrophotometric assay
Assay type: biochemical
Details: Table 1; compound concentration 1 µM; read-out: Lck-P* (% inhibition)
VALUE_TYPE: inhibition at 1 µM

[[record]]
molecule = "CC(C)=CC(=O)Nc1cccc(C(=O)c2ccc3c(/C=C/c4ccccn4)n[nH]c3c2)c1 [Reference Example 41(dd)]"
value_type = "inhibition at 1 µM"
meas_value = "50%"

[[record]]
molecule = "COc1cccc(C(=O)Nc2cccc(C(=O)c3ccc4c(/C=C/c5ccccn5)n[nH]c4c3)c2)c1 [Reference Example 41(bb)]"
value_type = "inhibition at 1 µM"
meas_value = "76%"

[[record]]
molecule = "CN(c1cccc(NC(=O)c2ccccc2)c1)c1ccc2c(/C=C/c3ccccc3)n[nH]c2c1"
value_type = "inhibition at 1 µM"
meas_value = "32%"

[[record]]
molecule = "CCn1nc(C)cc1C(=O)Nc1cccc(Oc2ccc3c(/C=C/c4ccccc4)n[nH]c3c2)c1 [Reference Example 30(e)]"
value_type = "inhibition at 1 µM"
meas_value = "62%"


====

Biological target: CDK4/Cyclin D3 complex (Homo sapiens, UniProt P11802)
Sequence (P11802 whole entry): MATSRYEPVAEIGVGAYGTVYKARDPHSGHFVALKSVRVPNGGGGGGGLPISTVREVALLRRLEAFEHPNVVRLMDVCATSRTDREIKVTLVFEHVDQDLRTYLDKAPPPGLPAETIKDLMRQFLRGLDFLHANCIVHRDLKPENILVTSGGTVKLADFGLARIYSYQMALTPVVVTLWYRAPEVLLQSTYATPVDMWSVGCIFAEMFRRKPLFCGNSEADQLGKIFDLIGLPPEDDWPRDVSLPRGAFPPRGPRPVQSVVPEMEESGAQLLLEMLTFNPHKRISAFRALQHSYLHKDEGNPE
Sequence (P30281 whole entry partner): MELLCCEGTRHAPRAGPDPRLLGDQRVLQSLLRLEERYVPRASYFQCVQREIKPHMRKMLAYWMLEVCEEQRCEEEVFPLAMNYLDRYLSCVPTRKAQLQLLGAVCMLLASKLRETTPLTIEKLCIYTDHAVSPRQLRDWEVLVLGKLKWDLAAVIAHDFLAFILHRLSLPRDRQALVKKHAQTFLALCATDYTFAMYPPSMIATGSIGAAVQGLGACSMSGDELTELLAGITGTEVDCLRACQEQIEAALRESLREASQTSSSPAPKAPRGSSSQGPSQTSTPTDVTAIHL
Test: biochemical
Details: read-out: CDK4 * (% inhibition)
// reported inhibition at 1 µM for each item listed
VALUE_TYPE: inhibition at 1 µM (%)

[[record]]
compound = "CCOc1cc(CO)c(-c2ccc3c(-c4nc5ccccc5[nH]4)n[nH]c3c2)cc1OC [Reference Example 24(m)]"
units = "%"
meas_value = 16

[[record]]
compound = "C=CCn1nc(C)cc1C(=O)Nc1cccc(C(=O)c2ccc3c(/C=C/c4ccccn4)n[nH]c3c2)c1 [Reference Example 41(t)]"
units = "%"
meas_value = 2

[[record]]
compound = "O=C(Nc1cccc(C(=O)c2ccc3c(/C=C/c4ccccc4)n[nH]c3c2)c1)c1ccccc1"
units = "%"
meas_value = 11

[[record]]
compound = "CCn1nc(C)cc1C(=O)Nc1cccc(Oc2ccc3c(/C=C/c4ccccn4)n[nH]c3c2)c1 [Reference Example 31(d)]"
units = "%"
meas_value = 9

[[record]]
compound = "CCONC(=O)c1ccccc1Sc1ccc2c(/C=C/c3ccccn3)n[nH]c2c1 [Reference Example 35(dd)]"
units = "%"
meas_value = 8

[[record]]
compound = "Oc1ccc(-c2ccc3c(/C=C/c4ccccc4)n[nH]c3c2)cc1O [Reference Example 28(d)]"
units = "%"
meas_value = 87

[[record]]
compound = "Oc1cccc(-c2ccc3c(/C=C/c4ccccc4)n[nH]c3c2)c1 [Reference Example 28(a), 6-(3-hydrophenyl)-3-E-styryl-1H-indazole]"
units = "%"
meas_value = 79

[[record]]
compound = "CCn1nc(C)cc1C(=O)Nc1cc(C(=O)c2ccc3c(/C=C/c4ccccn4)n[nH]c3c2)ccc1C [Reference Example 41(ee)]"
units = "%"
meas_value = 2

[[record]]
compound = "CNC(=O)c1ccccc1Sc1ccc2c(/C=C/c3ccccn3)n[nH]c2c1 [Reference Example 33(a)]"
units = "%"
meas_value = 7

[[record]]
compound = "C#CCNC(=O)c1ccccc1Sc1ccc2c(/C=C/c3ccccn3)n[nH]c2c1 [Reference Example 35(cc)]"
units = "%"
meas_value = 6

[[record]]
compound = "Cc1cc(C(=O)Nc2cccc(C(=O)c3ccc4c(/C=C/c5ccccn5)n[nH]c4c3)c2)n(C)n1 [Reference Example 41(p)]"
units = "%"
meas_value = 3

[[record]]
compound = "Oc1ccc(-c2ccc3c(/C=C/c4ccccc4)n[nH]c3c2)cc1 [Reference Example 28(b)]"
units = "%"
meas_value = 98

[[record]]
compound = "O=C(NNc1ccccn1)c1ccccc1Sc1ccc2c(/C=C/c3ccccn3)n[nH]c2c1 [Reference Example 35(n)]"
units = "%"
meas_value = 10

[[record]]
compound = "CCCn1nc(C)cc1C(=O)Nc1cccc(C(=O)c2ccc3c(/C=C/c4ccccn4)n[nH]c3c2)c1 [Reference Example 41(r)]"
units = "%"
meas_value = 5

[[record]]
compound = "O=C(Nc1cccc(Oc2ccc3c(/C=C/c4ccccc4)n[nH]c3c2)c1)c1ccccc1"
units = "%"
meas_value = 19

[[record]]
compound = "CCn1nc(C)cc1C(=O)Nc1cccc(C(=O)c2ccc3c(/C=C/c4ccccn4)n[nH]c3c2)c1 [Reference Example 41(a)]"
units = "%"
meas_value = 6

[[record]]
compound = "C=C(c1cccc(NC(C)=O)c1)c1ccc2c(/C=C/c3ccccc3)n[nH]c2c1"
units = "%"
meas_value = 17

[[record]]
compound = "CC(C)ONC(=O)c1ccccc1Sc1ccc2c(/C=C/c3ccccn3)n[nH]c2c1 [Reference Example 35(k)]"
units = "%"
meas_value = 7

[[record]]
compound = "OCCOc1cc(-c2ccc3c(/C=C/c4ccccc4)n[nH]c3c2)ccc1O [Reference Example 27(i)]"
units = "%"
meas_value = 92


// data source = patent EP1614683B1
